Assay: Pharmacokinetics after single oral administration to fed male beagle dogs (plasma concentrations by LC-MS, non-compartmental analysis)
Format: in vivo
Conditions: male, beagle, dog, plasma, po, 2 mg/kg, dog Lars; single oral 2 mg/kg, fed male beagle dog, cross-over; granulate with 20% SDS in gelatine capsules; read-out: Cmax
recorded-metric: Cmax (µg/mL)
Only the number, expressed in µg/mL, is required.

Input: For the compound Cc1cc(F)ccc1-c1cc(N2CCS(=O)(=O)CC2)ncc1N(C)C(=O)C(C)(C)c1cc(C(F)(F)F)cc(C(F)(F)F)c1 [Form A] , give its reported Cmax.
Output: 0.744

###

Assay: Pharmacokinetics after single oral administration to fed male beagle dogs (plasma concentrations by LC-MS, non-compartmental analysis)
Assay type: in vivo
Settings: male, beagle, dog, plasma, po, 2 mg/kg, dog Lupo; single oral 2 mg/kg, fed male beagle dog, cross-over; granulate with 20% SDS in gelatine capsules; read-out: Cmax
recorded-metric: Cmax (ng/mL)
Enter your answer as a number in ng/mL; do not include the unit.

Input: Tell us which Cmax value is on record for Cc1cc(F)ccc1-c1cc(N2CCS(=O)(=O)CC2)ncc1N(C)C(=O)C(C)(C)c1cc(C(F)(F)F)cc(C(F)(F)F)c1 [Form A]
Output: 424
